B1: TPR t1 (parent)
chain: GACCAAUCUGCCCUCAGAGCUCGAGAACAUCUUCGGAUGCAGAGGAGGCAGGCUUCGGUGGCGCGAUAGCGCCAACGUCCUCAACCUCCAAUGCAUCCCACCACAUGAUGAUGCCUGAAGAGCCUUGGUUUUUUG

- Variants of: B1
- test: polymerase ribozyme fitness, log enrichment relative to wild type (log ratio); higher = more active; in vitro selection for triplet polymerase activity
Rule: polymerase ribozyme fitness (log ratio) of -3 or more gives y; anything lower gives n.

| seq-string | assigned-label |
| --- | --- |
| GACCAAUCUGCCCUCAGAGCUCGAGAACAUCUUCGGAUGCAGAGGAGGCAGGCUUAGGUGGCGCGAUAGCGCCAACGUCCUCAACCUCCAAUGCAGCCCACCACAUGAUGAUACCUGAAGAGCCUUGGUUUUUUG [C56A U96G G113A] | y |
| GACCGAUCUGCCCUCAGAGCUCGAGAACAUCUUCGGAUGCAGCCGAGGCAGCCUUCGGUGGCGCGAUAGCGCUAACGUCCUCAACCUCCAAUGCAUCCCACCACAUGAAGAUGUAUGAAGAGCCUUGGUUUUUUG [A5G A43C G44C G52C C73U U109A C114U C115A] | n |
| GACCAAUCUGCCCUCAGAGCUCGAGAACAUCUUCGGAUGCAGAGGAGGCAGGCUUCGGUGGCGUGAUAGCGCUAACGUCCUCAACCUCCAAUGCAUCCCACCACAUGAUGAUGCCUCAAGAGCCUUGGUUUUUUG [C64U C73U G117C] | n |

// query hey, is polymerase ribozyme fitness (log ratio) for this one >= -3? GACCAAUCUGCCCUCAGAGCUCGAGAACAUCUUCGGAUGCAGAGGACGCAGGCUUGGGUGGCGCGAUAGCGGCAACGUCCUUAACCUCCAAUGCAUUCCACCACAUGAUGAAGCCUGAAGAGCCUUGGUUUUUUG [G47C C56G C72G C82U C97U U112A]
// result y

// query hey, is polymerase ribozyme fitness (log ratio) for this one >= -3? GACUAAUCUGCCCUCAGAGCUCGAGAACAUCUUCGUAUGCAGAGGAGGCAGGCUUCGGUGGCGCGAUAGCGCUAACGUCCUCAACCUCCAAUGCAUCCCACCACAUGAUGAUGCCUGAAGAGCCUUAGUUUUUUG [C4U G36U C73U G127A]
// result y

// query hey, is polymerase ribozyme fitness (log ratio) for this one >= -3? GACCAAUCUGUCCUCAGAGCUCGAGAACAUCUUCGGAUGCAGAGGAGGCAGUCUUCGGUGGCGCGAUAGCGCCAACGUCCUCUACCUCCAAUGCAUCCCACCACAUGAUCAUGCCUGAAGAGUCUUGGUUUUUUG [C11U G52U A83U G110C C123U]
// result n
